# Measured on: Cholinesterase (Homo sapiens)
# Sequence (P06276 whole entry): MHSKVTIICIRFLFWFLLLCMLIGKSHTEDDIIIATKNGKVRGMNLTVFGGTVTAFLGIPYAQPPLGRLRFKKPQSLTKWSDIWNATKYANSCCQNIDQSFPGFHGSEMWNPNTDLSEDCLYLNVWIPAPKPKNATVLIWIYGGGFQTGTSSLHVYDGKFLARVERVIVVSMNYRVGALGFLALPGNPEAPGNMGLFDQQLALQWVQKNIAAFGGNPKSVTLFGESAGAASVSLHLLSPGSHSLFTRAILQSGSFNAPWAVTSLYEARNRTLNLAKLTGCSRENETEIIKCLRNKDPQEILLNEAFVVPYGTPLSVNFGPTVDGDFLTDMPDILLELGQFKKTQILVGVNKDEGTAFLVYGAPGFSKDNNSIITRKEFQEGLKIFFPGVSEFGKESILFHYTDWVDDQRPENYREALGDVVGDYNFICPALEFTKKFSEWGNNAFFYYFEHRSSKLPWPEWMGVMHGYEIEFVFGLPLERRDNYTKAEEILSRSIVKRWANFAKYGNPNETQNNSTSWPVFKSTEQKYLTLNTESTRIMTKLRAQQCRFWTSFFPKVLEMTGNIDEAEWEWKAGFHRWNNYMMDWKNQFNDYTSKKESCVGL
Endpoint label: IC50 (µM)
// units = µM; emit number, no label

Item "CC(=O)c1ccc(Oc2ccc3nc4c(c(N)c3c2)CCC4)cc1" has what recorded IC50?
16.5

Please do the same for "Nc1c2c(nc3ccc(Oc4ccccc4)cc13)CCC2" as well.
2.93

Please do the same for "CC(C)(C)c1ccc(Oc2ccc3nc4c(c(N)c3c2)CCCCC4)cc1" as well.
2.51

Please do the same for "COc1cccc(Oc2ccc3nc4c(c(N)c3c2)CCC4)c1" as well.
7.96

Please do the same for "Cc1ccccc1Oc1ccc2nc3c(c(N)c2c1)CCCCC3" as well.
4.17

Please do the same for "Nc1c2c(nc3ccc(Oc4ccc(Cl)cc4)cc13)CCCCC2" as well.
1.85

Please do the same for "Cc1cccc(Oc2ccc3nc4c(c(N)c3c2)CCCC4)c1" as well.
3.66

Please do the same for "COc1ccccc1Oc1ccc2nc3c(c(N)c2c1)CCCCC3" as well.
5.48

Please do the same for "COc1cccc(Oc2ccc3nc4c(c(N)c3c2)CCCC4)c1" as well.
2.76

Please do the same for "Nc1c2c(nc3ccc(Oc4ccc(Cl)cc4)cc13)CCC2" as well.
3.6

Please do the same for "COc1ccc(Oc2ccc3nc4c(c(N)c3c2)CCC4)cc1" as well.
14.5

Please do the same for "Nc1c2c(nc3ccc(Oc4ccccc4)cc13)CCCCC2" as well.
1.4
